The values you see were collected from patent US6589914B2.

melting point values for the compounds below.

>  <compound>
ClC(Cl)=CCOc1cc(Cl)c(OCCc2nc3ccccc3o2)c(Cl)c1 [Compound 32]

>  <melting point [°C]>
61.2

$$$$
>  <compound>
ClC(Cl)=CCOc1cc(Cl)c(OCCCc2cccnc2)c(Cl)c1 [Compound 20]

>  <melting point [°C]>
48.3

$$$$
>  <compound>
ClC(Cl)=CCOc1cc(Cl)c(OCc2ccncc2)c(Cl)c1 [Compound 9]

>  <melting point [°C]>
74

$$$$
>  <compound>
ClC(Cl)=CCOc1cc(Cl)c(OCc2cccs2)c(Cl)c1 [Compound 6]

>  <melting point [°C]>
44.6

$$$$
>  <compound>
CN1C=CSC1CCOc1c(Cl)cc(OCC=C(Cl)Cl)cc1Cl (centres unmarked) [Compound 11]

>  <melting point [°C]>
30.4

$$$$

----------
measurement_name: melting point (°C)

>  <compound>
ClC(Cl)=CCOc1cc(Cl)c(OCc2cccnc2)c(Cl)c1 [Compound 8]

>  <measurement_name>
melting point

>  <quantity_unit>
°C

>  <endpoint_result>
105.9

$$$$
>  <compound>
ClC(Cl)=CCOc1cc(Cl)c(OCCCSc2nc3ccccc3[nH]2)c(Cl)c1 [Compound 39]

>  <measurement_name>
melting point

>  <quantity_unit>
°C

>  <endpoint_result>
120.7

$$$$
>  <compound>
O=C(OCCCOc1c(Cl)cc(OCC=C(Cl)Cl)cc1Cl)c1cnc2ccccc2c1 [Compound 28]

>  <measurement_name>
melting point

>  <quantity_unit>
°C

>  <endpoint_result>
92.3

$$$$
>  <compound>
ClC(Cl)=CCOc1cc(Cl)c(NCCCOc2ccccn2)c(Cl)c1 [Compound 71]

>  <measurement_name>
melting point

>  <quantity_unit>
°C

>  <endpoint_result>
76.2

$$$$
>  <compound>
ClC(Cl)=CCOc1cc(Cl)c(OCCSc2ccncc2)c(Cl)c1 [Compound 19]

>  <measurement_name>
melting point

>  <quantity_unit>
°C

>  <endpoint_result>
74.7

$$$$
>  <compound>
ClC(Cl)=CCOc1cc(Cl)c(OCc2ccco2)c(Cl)c1 [Compound 7]

>  <measurement_name>
melting point

>  <quantity_unit>
°C

>  <endpoint_result>
46

$$$$
>  <compound>
ClC(Cl)=CCOc1cc(Cl)c(OCc2ccccn2)c(Cl)c1 [Compound 5]

>  <measurement_name>
melting point

>  <quantity_unit>
°C

>  <endpoint_result>
48.2

$$$$
